assayed-system: c-Met (soluble recombinant, hepatocyte growth factor receptor) (Homo sapiens, UniProt P08581 25-932)
Sequence (P08581 25-932): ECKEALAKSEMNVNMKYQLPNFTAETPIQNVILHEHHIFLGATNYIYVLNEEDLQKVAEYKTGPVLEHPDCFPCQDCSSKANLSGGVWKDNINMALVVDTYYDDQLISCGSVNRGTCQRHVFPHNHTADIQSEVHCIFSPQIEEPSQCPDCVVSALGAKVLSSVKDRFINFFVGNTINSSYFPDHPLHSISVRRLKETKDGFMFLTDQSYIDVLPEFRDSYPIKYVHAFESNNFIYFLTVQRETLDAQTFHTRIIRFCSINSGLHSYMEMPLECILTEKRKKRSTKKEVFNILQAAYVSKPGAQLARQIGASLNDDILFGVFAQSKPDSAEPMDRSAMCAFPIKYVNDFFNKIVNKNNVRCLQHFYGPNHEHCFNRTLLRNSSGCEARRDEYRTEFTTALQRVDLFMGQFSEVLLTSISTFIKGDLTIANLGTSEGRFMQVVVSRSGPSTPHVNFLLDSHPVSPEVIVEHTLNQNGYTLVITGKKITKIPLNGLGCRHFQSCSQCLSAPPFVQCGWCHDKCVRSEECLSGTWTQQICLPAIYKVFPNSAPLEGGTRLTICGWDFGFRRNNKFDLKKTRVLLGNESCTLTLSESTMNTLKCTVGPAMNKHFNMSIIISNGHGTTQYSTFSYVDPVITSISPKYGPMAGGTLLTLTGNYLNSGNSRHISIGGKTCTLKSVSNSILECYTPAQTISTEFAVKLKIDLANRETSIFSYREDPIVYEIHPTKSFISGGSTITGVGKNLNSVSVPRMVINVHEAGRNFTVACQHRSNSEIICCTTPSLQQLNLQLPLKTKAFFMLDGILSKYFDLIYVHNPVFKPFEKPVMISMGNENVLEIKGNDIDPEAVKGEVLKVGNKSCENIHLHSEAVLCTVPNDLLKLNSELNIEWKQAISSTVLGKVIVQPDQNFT
test-method-notes: FCS kinetics (koff/kon); kon 1.70e4 M-1 s-1; koff 4.30e-4 s-1; PBS pH 7.4; aptamer folded in PBS with 5 mM MgCl2 (1 mM for AS1411 and 36t), 90 C 2 min then cooled; final buffer not detailed; overnight at room temperature; 100 pM aptamer (1 nM for serum proteins)
details: protein: commercial; tags: polyhistidine tag; label: 5'-atto633; G-quadruplex
pKd: −log10 of the molar value.
property-label: pKd

Query :: Form field: reported pKd of CLN3 (structured_DNA) DNA: ATCAGGTGGATGGTAGCTCGGTCGGGGTGGGTGGGTTGGCAAGTCTGATTA
Result :: ~7.60
